This collection of values is drawn from paper PMC2248166.

target: HLA A*0201 (Homo sapiens, UniProt P04439, D140Y/D185E/D98H/E176V/E277Q/G131W/G231S/I119V/I121R/I166T/I218V/L300P/L318F/N151K/N90K/P208A/P217A/Q86G/Q94H/R138H/R169H/T345S); conditions: positional scanning combinatorial 9-mer library; normalized to 1.0 for the best residue at each position
Could you label it y if measured Normalized average relative binding affinity (ARB), HLA A*0201 is 0.06 or higher, and n otherwise?

Example entries begin here.
>>> print(df.to_string())
        ordered_residues  class_label
0  XXXCXXXXX [3064.0062]            y
1  TXXXXXXXX [3064.0017]            y
2  AXXXXXXXX [3064.0001]            y
3  HXXXXXXXX [3064.0007]            n
4  XXPXXXXXX [3064.0053]            n

QUERY: Answer whether Normalized average relative binding affinity (ARB), HLA A*0201 of MXXXXXXXX [3064.0011] is greater than or equal to 0.06.
RESULT: y

QUERY: Hi team, for XFXXXXXXX [3064.0025] , is the recorded Normalized average relative binding affinity (ARB), HLA A*0201 at or above 0.06?
RESULT: n

QUERY: Does NXXXXXXXX [3064.0012] have a reported Normalized average relative binding affinity (ARB), HLA A*0201 of at least 0.06?
RESULT: y

QUERY: For this sequence, is measured Normalized average relative binding affinity (ARB), HLA A*0201 0.06 or higher? XXDXXXXXX [3064.0043]
RESULT: y

QUERY: Decide: Normalized average relative binding affinity (ARB), HLA A*0201 of QXXXXXXXX [3064.0014] >= 0.06?
RESULT: n

QUERY: API: above_or_equal(metric=Normalized average relative binding affinity (ARB), HLA A*0201, cutoff=0.06) for item XDXXXXXXX [3064.0023]
RESULT: n

QUERY: Is Normalized average relative binding affinity (ARB), HLA A*0201 at least 0.06? Consider XHXXXXXXX [3064.0027]
RESULT: n

QUERY: hey, is Normalized average relative binding affinity (ARB), HLA A*0201 for this one >= 0.06? VXXXXXXXX [3064.0018]
RESULT: y

QUERY: Identify whether the reported Normalized average relative binding affinity (ARB), HLA A*0201 of the following sequence is 0.06 or greater: XCXXXXXXX [3064.0022]
RESULT: n

QUERY: Evaluate XPXXXXXXX [3064.0033] : Normalized average relative binding affinity (ARB), HLA A*0201 at minimum 0.06?
RESULT: n

QUERY: hey, is Normalized average relative binding affinity (ARB), HLA A*0201 for this one >= 0.06? XVXXXXXXX [3064.0038]
RESULT: y

* * *

target: HLA A*6802 (Homo sapiens, UniProt P04439, A269V/D140Y/D185E/E176V/E277Q/E87N/F33Y/G231S/I121R/I166T/I218V/L180W/L300P/L318F/N151K/P208A/P217A/Q86R/R138H/R169H/S129P/T345S/V36M); assay type: binding
measurement kind: Normalized average relative binding affinity (ARB), HLA A*6802
One number for each entry.

// known answers, use as guide
In [3]: df
Out[3]:
        ordered_residues  quantitative_readout
0  XVXXXXXXX [3064.0038]                   1.0
1  XXQXXXXXX [3064.0054]                  0.12
2  RXXXXXXXX [3064.0015]                 0.044
3  XXDXXXXXX [3064.0043]                 0.025
4  XXHXXXXXX [3064.0047]                  0.14

The following sequences each have a reported value; give each one's Normalized average relative binding affinity (ARB), HLA A*6802.
1. XXXDXXXXX [3064.0063]
2. XXYXXXXXX [3064.0060]

RESULT:
1. 0.31
2. 0.26

Okay, here is my list. What is Normalized average relative binding affinity (ARB), HLA A*6802 for each of these?
1. XCXXXXXXX [3064.0022]
2. XXLXXXXXX [3064.0050]
3. XXKXXXXXX [3064.0049]
4. XIXXXXXXX [3064.0028]
5. XXNXXXXXX [3064.0052]
6. PXXXXXXXX [3064.0013]

RESULT:
1: 0.0076; 2: 0.10; 3: 0.11; 4: 0.15; 5: 0.27; 6: 0.0050

Please give Normalized average relative binding affinity (ARB), HLA A*6802, item by item, for the list that follows.
1. XNXXXXXXX [3064.0032]
2. XSXXXXXXX [3064.0036]
3. XXSXXXXXX [3064.0056]

RESULT:
1. 0.034
2. 0.27
3. 0.50

* * *

molecular target: HLA B*5801 (Homo sapiens, UniProt P01889, A329T/C349S/D201E/D98Y/E176V/E187L/E204Q/E69T/G107R/I218V/I90N/K202T/L105A/L119I/N104I/N87E/Q89R/Q94S/R106L/R155S/R180L/R86G/S101N/S121R/S35A/S48A/T118I/V127L/V306I/V36M/Y140S/Y91M); format: binding
measurement kind: Normalized average relative binding affinity(ARB)
Give bare numbers.

Below: 10 sequences and their reported Normalized average relative binding affinity(ARB).
>>> print(df.to_string())
        ordered_residues  quantitative_readout
0  XXXXXXYXX [3064.0140]                  0.94
1  XXXLXXXXX [3064.0070]                  0.42
2  XXXVXXXXX [3064.0078]                  0.33
3  XXXMXXXXX [3064.0071]                  0.54
4  XXXXXXTXX [3064.0137]                  0.28
5  XXXXXFXXX [3064.0105]                  0.51
6  XXXXXXEXX [3064.0124]                  0.15
7  XXXXXXGXX [3064.0126]                 0.031
8  XXXXWXXXX [3064.0099]                  0.30
9  XXXXXYXXX [3064.0120]                   1.0

For each entry beneath this line, provide reported Normalized average relative binding affinity(ARB).
1. XXXXXXWXX [3064.0139]
2. XXXXXKXXX [3064.0109]
3. XXXXLXXXX [3064.0090]
4. XXXXXXXFX [3064.0145]
5. XXXXXEXXX [3064.0104]
6. XXXXXAXXX [3064.0101]
7. XXXXXXXWX [3064.0159]
8. XXXHXXXXX [3064.0067]

RESULT:
1. 0.79
2. 0.13
3. 0.25
4. 1.0
5. 0.80
6. 0.28
7. 0.84
8. 0.40

Below is a list of sequences. For each, state its recorded Normalized average relative binding affinity(ARB).
1. XXXXYXXXX [3064.0100]
2. XXXXAXXXX [3064.0081]
3. XXXXTXXXX [3064.0097]
4. XXXXEXXXX [3064.0084]
5. XXXXXXRXX [3064.0135]
6. XXXXXHXXX [3064.0107]

RESULT:
1: 0.33; 2: 0.28; 3: 0.33; 4: 0.21; 5: 0.075; 6: 0.40

Kindly give each listed record's Normalized average relative binding affinity(ARB).
1. XXXXXRXXX [3064.0115]
2. XXXXXXXQX [3064.0154]
3. XXXXXXXYX [3064.0160]
4. XXXXXXXKX [3064.0149]
5. XXXRXXXXX [3064.0075]
6. XXXXXWXXX [3064.0119]

RESULT:
1: 0.25; 2: 0.39; 3: 0.42; 4: 0.14; 5: 0.67; 6: 0.21

State the recorded Normalized average relative binding affinity(ARB) for every item in the following list.
1. XXXXXXVXX [3064.0138]
2. XXXSXXXXX [3064.0076]
3. XXXXXXXCX [3064.0142]

RESULT:
1. 0.53
2. 0.74
3. 0.18
